Target: human GLP-1 receptor (human) (UniProt P43220)
Sequence (P43220 24-463): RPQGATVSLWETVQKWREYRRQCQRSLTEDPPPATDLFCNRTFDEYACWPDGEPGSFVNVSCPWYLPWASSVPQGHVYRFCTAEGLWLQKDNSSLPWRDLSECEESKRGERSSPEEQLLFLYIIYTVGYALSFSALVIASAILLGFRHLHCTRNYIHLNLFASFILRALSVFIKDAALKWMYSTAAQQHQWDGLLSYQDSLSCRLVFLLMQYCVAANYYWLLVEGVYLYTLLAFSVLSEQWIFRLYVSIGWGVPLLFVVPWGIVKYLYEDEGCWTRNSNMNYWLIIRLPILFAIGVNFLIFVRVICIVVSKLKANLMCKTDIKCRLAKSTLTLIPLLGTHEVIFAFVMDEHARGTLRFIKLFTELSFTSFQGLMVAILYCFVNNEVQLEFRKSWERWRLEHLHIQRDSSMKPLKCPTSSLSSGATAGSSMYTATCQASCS
Run Description: cell-based or functional assay
Measure Name: cAMP EC50, Batch 2 (nM)

## Task Look up and state reported cAMP EC50, Batch 2 for IP018 (Fc fusion) YSEGTFISDYSIAMDKIHQQDFVNWLLAQKAAAGGSGSTASSGSGSATGGGGAATHTCPPCPAPEF
## Result 4200

1. IP209 (Fc fusion) YSEGTFTSDYSSYMERQAIDEFIAWLLKGGAAAGGSGSTASSGSGSATGGGGAATHTCPPCPAPEF
2. IP132 (Fc fusion) HGEGTFTSDVSSYLEGQAAKEFIAWLVKGGGGGGSGGGGSGGGGSGGGGSATHTCPPCPAPEF
## Task Between the entries labeled 1 and 2 , whose measured cAMP EC50, Batch 2 is lower? Reply with the label of the item you choose.
## Result 2
